Biological target: sCoV2-RBD (Fc-tagged RBD of SARS-CoV-2 S protein) (SARS-CoV-2; human, UniProt P0DTC2 319-541)
Assay: BLI (Octet) blocking of ACE2 binding to captured sCoV2-RBD
Give IC50 for every item shown.
Numbers only, in µg/mL.

A selection of reference data follows.
>  <binder>
CoV2-17 (antibody, V domains shown) VH: QVELVESGGGLVKPGGSLRLSCAASGFTFSSYSMNWVRQAPGKGLEWVSSISSSSSYIYYADSVKGRFTISRDNAKNSLYLQMNSLRAEDTAVYYCARGNVDIVATGEVDAFDIWGQGTMVSVSS VL: QAVVTQPPSASGTLGQRVTISCSGSSSTIGSNYVYWYQQLPGTAPKLLIYRNNQRPSGVPDRFSGSKSGTSASLAISGLRSEDEADYYCAAWDDSLSGYVFGTGTQLTVL

>  <IC50 (µg/mL)>
4.28

$$$$
>  <binder>
CoV2-32 (antibody, V domains shown) VH: EVQLVESGGGLVQPGRSLRLSCAAPRFTFDDYAIHWVRQVPGKGLEWVSGSSWNSGTIGYAPSVKGRFTISRDNAKNSLFLQMNSLRVEDTALYYCAILPGDYNRVADVFDIWGQGTMVIVSS VL: QAVVTQPPSVSGAPGQRVTISCTGSSSNIGAGYDVHWYQQLPGTAPKLLIYGNNNRPSGVPDRFSGSKSGTSASLAITGLQVEDEADYYCQSYDSSLSGYVFGTGTKVTVL

>  <IC50 (µg/mL)>
10.4

$$$$
>  <binder>
CoV2-29 (antibody, V domains shown) VH: QVQLVESGGGLVQPGGSLRLSCAASGFTFSSYWMSWVRQAPGKGLEWVANIKQDGSEKYYVDSVKGRFTISRDNAKNSLYLQMNSLRAEDTAVYYCARMADDDFWRDLPGFYMDVWGKGTTVTVSS VL: QAVVTQPASVSGSPGQSITISCTGTSSDVGGYNYVSWYQQHPGKAPKLMIYDVSNRPSGVSNRFSGSKSGNTASLTISGLQAEDEADYYCSSYTSSSTLVFGGGTKVTVL

>  <IC50 (µg/mL)>
2.25

$$$$

IC50 lookup needed for CoV2-33 (antibody, V domains shown) VH: QVQLVESGGGLVQPGRSLRLSCAASRFTFDDHAMHWVRQAPGKGLEWVSGISWNGGIIGYADSVKGRFTISRDNAKNSLYLQMNSLRAEDTALYYCAKGMGFGESNYYAMDVWGQGTMVTVSS VL: QSALTQPASVSGSPGQSITISCTGTSSDVGGYNYVSWYQQHPGKAPKLIIYDVSNRPSGVSNRFSGSKSGNTASLTISGLQAEDEAYYYCSSYTSISNLVVFGGGTKVTVL , thanks. 5.47
